Reported values of viability, T/C for individual entries
Tested on: 997726-040-R-J2-PDC tumor spheroids, viability
Experiment: Anticancer human tumor 997726-040-R-J2-PDC patient-derived squamous cell lung carcinoma cell line growth inhibition [PI3K]
Conditions: second compound 0.0316 µM; first compound 10 µM; stronger effect = lower value; spheroids with HUVEC and MSC

CCCS(=O)(=O)Nc1ccc(F)c(C(=O)c2c[nH]c3ncc(-c4ccc(Cl)cc4)cc23)c1F + CC(Nc1ncnc2nc[nH]c12)c1cc2cccc(Cl)c2c(=O)n1-c1ccccc1; 20.9%
CC1(C)CCC(Nc2ncc(C(F)(F)F)c(-c3c[nH]c4c(P(C)(C)=O)c(C#N)ccc34)n2)CN1 (stereo not given) + Cc1nc(NC(=O)N2CCCC2C(N)=O)sc1-c1ccnc(C(C)(C)C(F)(F)F)c1; 5.15%
CC1(C)CCC(Nc2ncc(C(F)(F)F)c(-c3c[nH]c4c(P(C)(C)=O)c(C#N)ccc34)n2)CN1 (stereo not given) + COc1c(OCCCN2CCOCC2)ccc2c3n(c(=NC(=O)c4cnc(N)nc4)nc12)CCN3; 7.84%

Reading of viability, T/C for CC1(C)CCC(CN2CCN(c3ccc(C(=O)NS(=O)(=O)c4ccc(NCC5CCOCC5)c([N+](=O)[O-])c4)c(Oc4cnc5[nH]ccc5c4)c3)CC2)=C(c2ccc(Cl)cc2)C1 + CC(Nc1ccc2c(c1)OCCn1cc(N3C(=O)OCC3C(F)F)nc1-2)C(N)=O with 997726-040-R-J2-PDC tumor spheroids, viability: 39.5%

Reading of viability, T/C for CC(Cn1ccc(-c2ccc(C#N)c(Cl)c2)n1)NC(=O)c1cc(C(C)O)[nH]n1 (stereo not given) + CC(Nc1ncnc2nc[nH]c12)c1cc2cccc(Cl)c2c(=O)n1-c1ccccc1 with 997726-040-R-J2-PDC tumor spheroids, viability: 105%

---

System: 997726-040-R-J2-PDC tumor spheroids, viability
Assay: Anticancer human tumor 997726-040-R-J2-PDC cell line growth inhibition [PI3K];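 note: spheroids exposed to compounds for seven days before readout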
Conditions: second compound 0.01 µM; first compound 0.1 µM; stronger effect = lower value; spheroids with HUVEC and MSC
Reported values of viability, T/C for individual entries
Your answer should be a plain number; it is taken to be in %.

Consider the following illustrative entries.
CCCS(=O)(=O)Nc1ccc(F)c(C(=O)c2c[nH]c3ncc(-c4ccc(Cl)cc4)cc23)c1F + COc1c(OCCCN2CCOCC2)ccc2c3n(c(=NC(=O)c4cnc(N)nc4)nc12)CCN3; 70.3
CC1(C)CCC(CN2CCN(c3ccc(C(=O)NS(=O)(=O)c4ccc(NCC5CCOCC5)c([N+](=O)[O-])c4)c(Oc4cnc5[nH]ccc5c4)c3)CC2)=C(c2ccc(Cl)cc2)C1 + CC(Nc1ccc2c(c1)OCCn1cc(N3C(=O)OCC3C(F)F)nc1-2)C(N)=O; 86.6
CC1(C)CCC(CN2CCN(c3ccc(C(=O)NS(=O)(=O)c4ccc(NCC5CCOCC5)c([N+](=O)[O-])c4)c(Oc4cnc5[nH]ccc5c4)c3)CC2)=C(c2ccc(Cl)cc2)C1 + COc1c(OCCCN2CCOCC2)ccc2c3n(c(=NC(=O)c4cnc(N)nc4)nc12)CCN3; 64.6
CC1(C)CCC(Nc2ncc(C(F)(F)F)c(-c3c[nH]c4c(P(C)(C)=O)c(C#N)ccc34)n2)CN1 (stereo unspecified) + COc1c(OCCCN2CCOCC2)ccc2c3n(c(=NC(=O)c4cnc(N)nc4)nc12)CCN3; 28.9
CC(C)n1nc(-c2ccc3oc(N)nc3c2)c2c(N)ncnc21 + CC(Nc1ccc2c(c1)OCCn1cc(N3C(=O)OCC3C(F)F)nc1-2)C(N)=O; 6.85
Cn1ncc(Cl)c1-c1cc(C(=O)NC(CN)Cc2cccc(F)c2)sc1Cl (stereo unspecified) + COc1c(OCCCN2CCOCC2)ccc2c3n(c(=NC(=O)c4cnc(N)nc4)nc12)CCN3; 39
Cn1ncnc1[C@H]1c2n[nH]c(=O)c3cc(F)cc(c23)N[C@@H]1c1ccc(F)cc1 + COc1c(OCCCN2CCOCC2)ccc2c3n(c(=NC(=O)c4cnc(N)nc4)nc12)CCN3; 58.1
CNC(=O)c1ccc(N2C(=S)N(c3ccc(C#N)c(C(F)(F)F)c3)C(=O)C2(C)C)cc1F + COc1c(OCCCN2CCOCC2)ccc2c3n(c(=NC(=O)c4cnc(N)nc4)nc12)CCN3; 61.2
Cn1nccc1Nc1nccc(-c2ccn(C(CO)c3ccc(Cl)c(F)c3)c(=O)c2)n1 (stereo unspecified) + COc1c(OCCCN2CCOCC2)ccc2c3n(c(=NC(=O)c4cnc(N)nc4)nc12)CCN3; 47.7
CCCS(=O)(=O)Nc1ccc(F)c(C(=O)c2c[nH]c3ncc(-c4ccc(Cl)cc4)cc23)c1F + CC(Nc1ccc2c(c1)OCCn1cc(N3C(=O)OCC3C(F)F)nc1-2)C(N)=O; 94.7

Reading of viability, T/C for CC(=O)c1c(C)c2cnc(Nc3ccc(N4CCNCC4)cn3)nc2n(C2CCCC2)c1=O + COc1c(OCCCN2CCOCC2)ccc2c3n(c(=NC(=O)c4cnc(N)nc4)nc12)CCN3 with 997726-040-R-J2-PDC tumor spheroids, viability: 39.2

---

System: 997726-040-R-J2-PDC tumor spheroids, viability
Assay: Anticancer human tumor 997726-040-R-J2-PDC cell line growth inhibition [PI3K];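 note: spheroids exposed to compounds for seven days before readout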
Conditions: second compound 0.01 µM; first compound 0.316 µM; stronger effect = lower value; spheroids with HUVEC and MSC
endpoint label: viability, T/C

Consider the following illustrative entries.
CC1(C)CCC(CN2CCN(c3ccc(C(=O)NS(=O)(=O)c4ccc(NCC5CCOCC5)c([N+](=O)[O-])c4)c(Oc4cnc5[nH]ccc5c4)c3)CC2)=C(c2ccc(Cl)cc2)C1 + CC(Nc1ccc2c(c1)OCCn1cc(N3C(=O)OCC3C(F)F)nc1-2)C(N)=O; 74.2%
C#Cc1c(F)ccc2cc(O)cc(-c3ncc4c(N5CC6CCC(C5)N6)nc(OCC56CCCN5CC(F)C6)nc4c3F)c12 (stereo not given) + COc1c(OCCCN2CCOCC2)ccc2c3n(c(=NC(=O)c4cnc(N)nc4)nc12)CCN3; 55.5%
CC1(C)CCC(CN2CCN(c3ccc(C(=O)NS(=O)(=O)c4ccc(NCC5CCOCC5)c([N+](=O)[O-])c4)c(Oc4cnc5[nH]ccc5c4)c3)CC2)=C(c2ccc(Cl)cc2)C1 + COc1c(OCCCN2CCOCC2)ccc2c3n(c(=NC(=O)c4cnc(N)nc4)nc12)CCN3; 68.4%
CC(C)NCC(C(=O)N1CCN(c2ncnc3c2C(C)CC3O)CC1)c1ccc(Cl)cc1 (stereo not given) + CC(Nc1ccc2c(c1)OCCn1cc(N3C(=O)OCC3C(F)F)nc1-2)C(N)=O; 41.3%
Cn1ncc(Cl)c1-c1cc(C(=O)NC(CN)Cc2cccc(F)c2)sc1Cl (stereo not given) + COc1c(OCCCN2CCOCC2)ccc2c3n(c(=NC(=O)c4cnc(N)nc4)nc12)CCN3; 21.6%

# evaluate next
Lab book: viability, T/C of CCN1CCN(Cc2ccc(Nc3ncc(F)c(-c4cc(F)c5nc(C)n(C(C)C)c5c4)n3)nc2)CC1 + CC(Nc1ccc2c(c1)OCCn1cc(N3C(=O)OCC3C(F)F)nc1-2)C(N)=O noted as 55.4%

---

System: 997726-040-R-J2-PDC tumor spheroids, viability
Assay: Anticancer human tumor 997726-040-R-J2-PDC cell line growth inhibition [PI3K];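 note: spheroids exposed to compounds for seven days before readout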
Details: curve of first compound; second compound 0.01 µM; spheroids with HUVEC and MSC
Reported values of pIC50 for individual entries
Quick note: pIC50 values are minus log10 of concentrations in mol/L.

Consider the following illustrative entries.
CCN1CCN(Cc2ccc(Nc3ncc(F)c(-c4cc(F)c5nc(C)n(C(C)C)c5c4)n3)nc2)CC1 + CC(Nc1ccc2c(c1)OCCn1cc(N3C(=O)OCC3C(F)F)nc1-2)C(N)=O; 6.08
CC(=O)c1c(C)c2cnc(Nc3ccc(N4CCNCC4)cn3)nc2n(C2CCCC2)c1=O + COc1c(OCCCN2CCOCC2)ccc2c3n(c(=NC(=O)c4cnc(N)nc4)nc12)CCN3; 7.81
CCCS(=O)(=O)Nc1ccc(F)c(C(=O)c2c[nH]c3ncc(-c4ccc(Cl)cc4)cc23)c1F + CC(Nc1ccc2c(c1)OCCn1cc(N3C(=O)OCC3C(F)F)nc1-2)C(N)=O; 5.21
CC(C)n1nc(-c2ccc3oc(N)nc3c2)c2c(N)ncnc21 + COc1c(OCCCN2CCOCC2)ccc2c3n(c(=NC(=O)c4cnc(N)nc4)nc12)CCN3; 8.53
Cn1ncc(Cl)c1-c1cc(C(=O)NC(CN)Cc2cccc(F)c2)sc1Cl (stereo unspecified) + CC(Nc1ccc2c(c1)OCCn1cc(N3C(=O)OCC3C(F)F)nc1-2)C(N)=O; 7.08
CC(C)NCC(C(=O)N1CCN(c2ncnc3c2C(C)CC3O)CC1)c1ccc(Cl)cc1 (stereo unspecified) + COc1c(OCCCN2CCOCC2)ccc2c3n(c(=NC(=O)c4cnc(N)nc4)nc12)CCN3; 7.10

Lab book: pIC50 of C#Cc1c(F)ccc2cc(O)cc(-c3ncc4c(N5CC6CCC(C5)N6)nc(OCC56CCCN5CC(F)C6)nc4c3F)c12 (stereo unspecified) + COc1c(OCCCN2CCOCC2)ccc2c3n(c(=NC(=O)c4cnc(N)nc4)nc12)CCN3 noted as 5.29

Lab book: pIC50 of Cn1nccc1Nc1nccc(-c2ccn(C(CO)c3ccc(Cl)c(F)c3)c(=O)c2)n1 (stereo unspecified) + CC(Nc1ccc2c(c1)OCCn1cc(N3C(=O)OCC3C(F)F)nc1-2)C(N)=O noted as 5.33

Lab book: pIC50 of CC1(C)CCC(CN2CCN(c3ccc(C(=O)NS(=O)(=O)c4ccc(NCC5CCOCC5)c([N+](=O)[O-])c4)c(Oc4cnc5[nH]ccc5c4)c3)CC2)=C(c2ccc(Cl)cc2)C1 + CC(Nc1ccc2c(c1)OCCn1cc(N3C(=O)OCC3C(F)F)nc1-2)C(N)=O noted as 5.03
